Tested on: SK-OV-3 multi-cell spheroids, viability
assay-notes: Anticancer human tumor SK-OV-3 cell line growth inhibition [IpAb];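 further: viability read after seven days of drug exposure; percent of DMSO vehicle control luminescence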
test-conditions: second compound 0.316 µM; first compound 0.0949 µM; stronger effect = lower value
viability, T/C: recorded values

>  <compound>
CC(C)(C)c1cnc(CSc2cnc(NC(=O)C3CCNCC3)s2)o1 + CC(C)NCC(C(=O)N1CCN(c2ncnc3c2C(C)CC3O)CC1)c1ccc(Cl)cc1

>  <viability, T/C, %>
73.7

$$$$
>  <compound>
CC(=O)c1c(C)c2cnc(Nc3ccc(N4CCNCC4)cn3)nc2n(C2CCCC2)c1=O + CCN1CCN(Cc2ccc(Nc3ncc(F)c(-c4cc(F)c5nc(C)n(C(C)C)c5c4)n3)nc2)CC1

>  <viability, T/C, %>
45.5

$$$$
>  <compound>
Cn1cnc2c(F)c(Nc3ccc(Br)cc3Cl)c(C(=O)NOCCO)cc21 + CC(C)NCC(C(=O)N1CCN(c2ncnc3c2C(C)CC3O)CC1)c1ccc(Cl)cc1

>  <viability, T/C, %>
25.8

$$$$
>  <compound>
Cn1cnc2c(F)c(Nc3ccc(Br)cc3Cl)c(C(=O)NOCCO)cc21 + CCN1CCN(Cc2ccc(Nc3ncc(F)c(-c4cc(F)c5nc(C)n(C(C)C)c5c4)n3)nc2)CC1

>  <viability, T/C, %>
49.1

$$$$
>  <compound>
CC(C)(C)c1cnc(CSc2cnc(NC(=O)C3CCNCC3)s2)o1 + CCN1CCN(Cc2ccc(Nc3ncc(F)c(-c4cc(F)c5nc(C)n(C(C)C)c5c4)n3)nc2)CC1

>  <viability, T/C, %>
63.4

$$$$
>  <compound>
CC(=O)c1c(C)c2cnc(Nc3ccc(N4CCNCC4)cn3)nc2n(C2CCCC2)c1=O + CC(C)NCC(C(=O)N1CCN(c2ncnc3c2C(C)CC3O)CC1)c1ccc(Cl)cc1

>  <viability, T/C, %>
23.9

$$$$
